Where these numbers come from: patent US20240247080A1

# TARGET_OF_ASSAY: T1, human GIP receptor (human, UniProt P48546 22-466)
# T1 sequence (looked up): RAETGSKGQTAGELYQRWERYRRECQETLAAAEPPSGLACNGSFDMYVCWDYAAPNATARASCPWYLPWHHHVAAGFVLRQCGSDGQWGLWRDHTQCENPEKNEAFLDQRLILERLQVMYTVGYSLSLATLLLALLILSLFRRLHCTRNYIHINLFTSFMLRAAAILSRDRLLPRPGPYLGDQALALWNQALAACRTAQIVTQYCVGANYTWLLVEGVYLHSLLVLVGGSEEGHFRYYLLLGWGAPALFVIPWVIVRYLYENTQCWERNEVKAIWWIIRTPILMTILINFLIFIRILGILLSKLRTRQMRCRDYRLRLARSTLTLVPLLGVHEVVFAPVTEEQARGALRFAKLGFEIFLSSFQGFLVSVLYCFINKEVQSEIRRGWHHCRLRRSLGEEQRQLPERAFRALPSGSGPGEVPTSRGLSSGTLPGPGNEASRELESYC
# METHOD_DESCRIPTION: cell-based or functional assay
Starred links: 1 amine or outer side, 2 acyl side, 3 side chain; linkers in the order of their positions; H or OH if unused. Non-standard residues stand in square brackets, D forms with d. Groups on a side chain read outwards from the residue. No end group written: not given here. *: point of attachment. C20 diacid = O=C(O)CCCCCCCCCCCCCCCCCCC(=O)*; C18 diacid = O=C(O)CCCCCCCCCCCCCCCCC(=O)*; γGlu = O=C(O)[C@H](CCC(=O)[*:2])N[*:1]; AEEA = NCCOCCOCC(=O)O; Aib = CC(C)(N)C(=O)O
MEASURE_NAME: EC50 hGIPR 0.5% hP (CreLuc) (nM)
Supply the numeric figure in nM, leaving out any unit text.

Use these answered entries as a reference point.
Report measured EC50 hGIPR 0.5% hP (CreLuc); entry is Y[Aib]EGTFTSDYSI[Aib]LEKQAQ[Aib]AFVQWLIK([Glu-Glu-Glu-Glu-Glu-Glu-C18 diacid])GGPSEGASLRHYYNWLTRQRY-NH2 (also: TFA salt) [Compound 264]
0.28

Report measured EC50 hGIPR 0.5% hP (CreLuc); entry is Y[Aib]EGTFTSDYSI[Aib]LEKQAQ[Aib]AFVEWLIK([AEEA-AEEA-γGlu-γGlu-γGlu-γGlu-C18 diacid])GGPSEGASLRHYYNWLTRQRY-NH2 (also: TFA salt) [Compound 297]
0.25

Continuing:
Report measured EC50 hGIPR 0.5% hP (CreLuc); entry is Y[Aib]EGTFTSDYSI[Aib]LEKQAQ[Aib]AFVEWLIK([Glu-Glu-Glu-Glu-C18 diacid])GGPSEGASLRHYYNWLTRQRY-NH2 (also: TFA salt) [Compound 291]
0.18

Report measured EC50 hGIPR 0.5% hP (CreLuc); entry is Y[Aib]EGTFTSDYSI[Aib]LEKQAQ[Aib]EFVEWLIK([γGlu-γGlu-γGlu-γGlu-C20 diacid])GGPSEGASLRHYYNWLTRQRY-NH2 (also: TFA salt) [Compound 271]
0.62
